FYI, the data here is from patent US12110276B2.

target: TEAD4 (Homo sapiens (Human), UniProt Q15561); experiment: TR-FRET lipid pocket probe competition assay (Lipid HTRF), TEAD4; format: binding; settings: 4 hours pre-incubation; read-out: Lipid HTRF TEAD4 IC50;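 also: His-tagged TEAD4 with biotinylated lipid-pocket probe, read by Europium anti-His and XL665 streptavidin, where probe displacement lowers the TR-FRET signal, IC50 from a four-parameter fit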
Sequence (Q15561 whole entry, species assumed): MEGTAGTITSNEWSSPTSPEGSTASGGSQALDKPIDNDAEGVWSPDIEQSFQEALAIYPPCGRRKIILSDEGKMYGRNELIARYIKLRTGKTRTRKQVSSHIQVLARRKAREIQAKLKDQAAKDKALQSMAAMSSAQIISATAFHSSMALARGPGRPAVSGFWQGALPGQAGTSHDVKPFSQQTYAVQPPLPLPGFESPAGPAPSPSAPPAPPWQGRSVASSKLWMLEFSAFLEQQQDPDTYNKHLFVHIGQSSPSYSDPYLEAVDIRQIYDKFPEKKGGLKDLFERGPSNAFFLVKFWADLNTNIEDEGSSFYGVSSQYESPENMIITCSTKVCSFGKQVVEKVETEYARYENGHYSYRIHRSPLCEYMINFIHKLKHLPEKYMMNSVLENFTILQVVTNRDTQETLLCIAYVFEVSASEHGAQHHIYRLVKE
pIC50 for assorted compounds
Keep in mind that pIC50 stands for -log10 of concentration in molar terms.

Some entries whose results are on file:
[
  {
    "COMPOUND": "C=C(F)C(=O)N1CC(c2nn(-c3ccc(OC(F)(F)F)cc3)c3nccc(-c4cnn(C(C)C)c4)c23)C1",
    "pIC50": 6.70
  },
  {
    "COMPOUND": "C=CC(=O)NCc1nn(-c2ccc(OC(F)(F)F)cc2)c2nccc(-c3cnn(C4COC4)c3)c12",
    "pIC50": 7.54
  },
  {
    "COMPOUND": "C=CC(=O)NCc1nn(-c2ccc(OC(F)(F)F)cc2)c2nccc(C(=O)NC)c12",
    "pIC50": 6.74
  },
  {
    "COMPOUND": "C=CC(=O)NCc1nn(-c2ccc(OC(F)(F)F)cc2)c2cccc(CO)c12",
    "pIC50": 7.23
  },
  {
    "COMPOUND": "C=CC(=O)NCc1nn(-c2ccc(OC(F)(F)F)cc2)c2nccc(N3CCC[C@H](O)C3)c12 (stereo in doubt)",
    "pIC50": 7.96
  },
  {
    "COMPOUND": "C=CC(=O)NCc1nn(-c2ccc(OC(F)(F)F)cc2)c2nccc(N(C)[C@H]3C[C@H](O)C3)c12",
    "pIC50": 8.00
  }
]

In the following, a different compound is considered.
Ask | Would you kindly share the measured pIC50 for C=CC(=O)NCc1nn(-c2cccc(OC(F)(F)F)c2)c2nccc([C@@H](O)CO)c12 (stereo in doubt) ?
Reply | 7.52
